# assay_remarks: Half life in human plasma by HPLC analysis
# Format: ADME, cell-free
Kindly supply the reported half-life values for the records listed here.
I'd appreciate it if you included the unit after the number.

**Q:** Would you mind telling me what half-life value was observed for CC(=O)O[C@H]1C(=O)[C@@]2(C)[C@H]([C@H](OC(=O)c3ccccc3)[C@]3(O)C[C@H](OC(=O)[C@H](OC(=O)CCC(=O)ONC(=O)CCCCCCC(=O)Nc4ccccc4)[C@@H](NC(=O)c4ccccc4)c4ccccc4)C(C)=C1C3(C)C)[C@]1(OC(C)=O)CO[C@@H]1C[C@@H]2O ?
**A:** 30 min

**Q:** Would you mind telling me what half-life value was observed for CC(=O)O[C@H]1C(=O)[C@@]2(C)[C@H]([C@H](OC(=O)c3ccccc3)[C@]3(O)C[C@H](OC(=O)[C@H](OC(=O)CNC(=O)ONC(=O)CCCCCCC(=O)Nc4ccccc4)[C@@H](NC(=O)c4ccccc4)c4ccccc4)C(C)=C1C3(C)C)[C@]1(OC(C)=O)CO[C@@H]1C[C@@H]2O ?
**A:** 30 min

---

# assay_remarks: Half life in mouse plasma by HPLC analysis
# Assay type: ADME, cell-free
Kindly supply the reported half-life values for the records listed here.
Use min as the unit, but write only the number.

**Q:** Would you mind telling me what half-life value was observed for CC(=O)O[C@H]1C(=O)[C@@]2(C)[C@H]([C@H](OC(=O)c3ccccc3)[C@]3(O)C[C@H](OC(=O)[C@H](OC(=O)CCC(=O)ONC(=O)CCCCCCC(=O)Nc4ccccc4)[C@@H](NC(=O)c4ccccc4)c4ccccc4)C(C)=C1C3(C)C)[C@]1(OC(C)=O)CO[C@@H]1C[C@@H]2O ?
**A:** 30

**Q:** Would you mind telling me what half-life value was observed for CC(=O)O[C@H]1C(=O)[C@@]2(C)[C@H]([C@H](OC(=O)c3ccccc3)[C@]3(O)C[C@H](OC(=O)[C@H](OC(=O)CNC(=O)ONC(=O)CCCCCCC(=O)Nc4ccccc4)[C@@H](NC(=O)c4ccccc4)c4ccccc4)C(C)=C1C3(C)C)[C@]1(OC(C)=O)CO[C@@H]1C[C@@H]2O ?
**A:** 30

---

# assay_remarks: Retention time of the compound by HPLC method
# Format: physicochemical
Quick rule for you: Retention_time under 10 min gets Met, anything else gets Not met.

**Q:** In the record for CC(=O)O[C@H]1C(=O)[C@@]2(C)[C@H]([C@H](OC(=O)c3ccccc3)[C@]3(O)C[C@H](OC(=O)[C@H](OC(=O)CNC(=O)ONC(=O)CCCCCCC(=O)Nc4ccccc4)[C@@H](NC(=O)c4ccccc4)c4ccccc4)C(C)=C1C3(C)C)[C@]1(OC(C)=O)CO[C@@H]1C[C@@H]2O , is Retention_time less than 10 min?
**A:** Not met

**Q:** In the record for CC(=O)O[C@H]1C(=O)[C@@]2(C)[C@H]([C@H](OC(=O)c3ccccc3)[C@]3(O)C[C@H](OC(=O)[C@H](OC(=O)CCC(=O)ONC(=O)CCCCCCC(=O)Nc4ccccc4)[C@@H](NC(=O)c4ccccc4)c4ccccc4)C(C)=C1C3(C)C)[C@]1(OC(C)=O)CO[C@@H]1C[C@@H]2O , is Retention_time less than 10 min?
**A:** Not met

**Q:** In the record for O=C(CCCCCCC(=O)Nc1ccccc1)NO , is Retention_time less than 10 min?
**A:** Met

**Q:** In the record for CC(=O)O[C@H]1C(=O)[C@@]2(C)[C@H]([C@H](OC(=O)c3ccccc3)[C@]3(O)C[C@H](OC(=O)[C@H](OC(=O)CCC(=O)O)[C@@H](NC(=O)c4ccccc4)c4ccccc4)C(C)=C1C3(C)C)[C@]1(OC(C)=O)CO[C@@H]1C[C@@H]2O , is Retention_time less than 10 min?
**A:** Not met

**Q:** In the record for CC(=O)O[C@H]1C(=O)[C@@]2(C)[C@H]([C@H](OC(=O)c3ccccc3)[C@]3(O)C[C@H](OC(=O)[C@H](O)[C@@H](NC(=O)c4ccccc4)c4ccccc4)C(C)=C1C3(C)C)[C@]1(OC(C)=O)CO[C@@H]1C[C@@H]2O , is Retention_time less than 10 min?
**A:** Not met
